Species: Rattus norvegicus
protocol-description: Open TG-GATES - Regimen: Daily Repeat
Type: toxicity, organism-based, Sprague-Dawley
Design: regimen Daily Repeat, gender Male, age 6 weeks
reported-conditions: in vivo, po, 1000 mg/kg, […], tissue Blood, route gavage, dose level High, time 28 day
# MCV annotations

Record excerpt, results attached:
>>> print(df.to_string())
                                   compound  measured_result
0                   CC(C)(S)[C@@H](N)C(=O)O          49.8 fL
1                            O=C(O)c1cccnc1          56.4 fL
2  CCN1CCCC1CNC(=O)c1cc(S(N)(=O)=O)ccc1OC (centres undefined) [SULPIRIDE]          55.5 fL

Qu. Specify measured MCV for `O=C(N[C@H](CO)[C@H](O)c1ccc([N+](=O)[O-])cc1)C(Cl)Cl` .
Ans. 57.3 fL

###

Organism: Rattus norvegicus
protocol-description: Open TG-GATES - Regimen: Single
Type: toxicity, organism-based, Sprague-Dawley
Set-up: regimen Single, gender Male, age 6 weeks
reported-conditions: in vivo, po, 0 mg/kg, 24 h, tissue Plasma, route gavage, dose level Control
quantity-name: Cl (meq/L)
Record the value in meq/L, omitting the unit from your answer.

Record excerpt, results attached:
>>> df
                                   compound  measured_result
0  CC(C)C(=O)Nc1ccc([N+](=O)[O-])c(C(F)(F)F)c1 [FLUTAMIDE]            103.2
1                            O=C(O)c1cccnc1            104.2
2  C[C@]12CCC(=O)C=C1CC[C@@H]1[C@@H]2CC[C@@]2(C)[C@H]1CC[C@]2(C)O            106.2
3  O=C(N[C@H](CO)[C@H](O)c1ccc([N+](=O)[O-])cc1)C(Cl)Cl            103.6

Qu. Specify measured Cl for `CN1C(=O)OC(C)(C)C1=O` .
Ans. 104.8

Qu. Specify measured Cl for `CC(C)(S)[C@@H](N)C(=O)O` .
Ans. 105.8

Qu. Specify measured Cl for `C#C[C@]1(O)CC[C@H]2[C@@H]3CCc4cc(O)ccc4[C@H]3CC[C@@]21C` .
Ans. 104.8

Qu. Specify measured Cl for `CCc1oc2ccccc2c1C(=O)c1cc(I)c(O)c(I)c1` .
Ans. 105.6

Qu. Specify measured Cl for `CC(=O)Oc1cc(C(C)C)c(OCCN(C)C)cc1C` .
Ans. 106.8

Qu. Specify measured Cl for `Nc1nc(N)c2nc(-c3ccccc3)c(N)nc2n1` .
Ans. 104.2

###

# K annotations
Organism: Rattus norvegicus
protocol-description: Open TG-GATES - Regimen: Single
Format: toxicity, organism-based, Sprague-Dawley
Parameters: regimen Single, gender Male, age 6 weeks
reported-conditions: in vivo, po, 0 mg/kg, 9 h, tissue Plasma, route gavage, dose level Control
Record the value in meq/L, omitting the unit from your answer.

In [3]: df
Out[3]:
                                   compound  quantity_name  measured_result
0  C[C@]12CCC(=O)C=C1CC[C@@H]1[C@@H]2CC[C@@]2(C)[C@H]1CC[C@]2(C)O              K              4.1
1          Nc1nc(N)c2nc(-c3ccccc3)c(N)nc2n1              K              3.9
2                       CCSCC[C@H](N)C(=O)O              K              3.6

Qu. Specify measured K for CC(C)C(=O)Nc1ccc([N+](=O)[O-])c(C(F)(F)F)c1 [FLUTAMIDE] .
Ans. 3.7

Qu. Specify measured K for `C#C[C@]1(O)CC[C@H]2[C@@H]3CCc4cc(O)ccc4[C@H]3CC[C@@]21C` .
Ans. 3.8

Qu. Specify measured K for CCN1CCCC1CNC(=O)c1cc(S(N)(=O)=O)ccc1OC (stereo not given) [SULPIRIDE] .
Ans. 3.9

Qu. Specify measured K for `CCC(C)(C)C(=O)O[C@H]1C[C@@H](C)C=C2C=C[C@H](C)[C@H](CC[C@@H]3C[C@@H](O)CC(=O)O3)[C@H]21` .
Ans. 4.6

Qu. Specify measured K for `CC(C)(S)[C@@H](N)C(=O)O` .
Ans. 4.2

Qu. Specify measured K for `O=C(O)c1cccnc1` .
Ans. 4.2

Qu. Specify measured K for CC(=N)S [THIOACETAMIDE] .
Ans. 4.8

# credit: ChEMBL document CHEMBL3885861
